System: NO production in BV2 microglial cell cultures treated with lipopolysachharide (LPS)
Assay: Inhibition of NO production in LPS-treated BV2 microglial cell cultures
Assay type: cell-based
Settings: BV2 cells
Measured parameter: anti-inflammatory potency compared to DFB (in words)

Compound: O=C(Nc1nc2ccccc2s1)[C@H]1C[C@@H]1c1cccc(F)c1 (racemic)
Result: superior potency to DFB
--
Compound: O=C(Nc1nc2ccccc2[nH]1)[C@H]1C[C@@H]1c1cccc(F)c1 (racemic)
Result: superior potency to DFB
